Target: HIV-1 reverse transcriptase (Human immunodeficiency virus type 1 group M subtype B, UniProt P04585)
Construct: virion associated HIV-1 IIIB reverse transcriptase; endogenous in cells; host or cells: HIV-1 IIIB virions lysed in Triton X-100
Experiment: HIV-1 reverse transcriptase assay
Format: biochemical, HIV-1 IIIB
Conditions: Table 1; inhibit 50% of HIV-1 RT activity; read-out: HIV-RT Assay IC50
pIC50: −log10 of the molar value.
observed-property: pIC50

[[record]]
compound = "CC(C)[C@@H]1CC[C@]2(C(=O)O)CC[C@]3(C)[C@H](CC[C@@H]4[C@@]5(C)CC[C@H](OC(=O)CC(C)(C)CC(=O)O)C(C)(C)[C@@H]5CC[C@]43C)[C@@H]12 [Compound 9]"
reading = "< 3.78"


Query: Find the recorded pIC50 belonging to C=C(C)[C@@H]1CC[C@]2(C(=O)O)CC[C@]3(C)[C@H](CC[C@@H]4[C@@]5(C)CC[C@H](O)C(C)(C)[C@@H]5CC[C@]43C)[C@@H]12 [Compound 1, betulinic acid, reference compound] and report it.
Response: < 3.66

Query: Proceed to CC(C)[C@@H]1CC[C@]2(C(=O)O)CC[C@]3(C)[C@H](CC[C@@H]4[C@@]5(C)CC[C@H](OC(=O)CC(C)(C)C(=O)O)C(C)(C)[C@@H]5CC[C@]43C)[C@@H]12 [Compound 8]
Response: < 3.77

Query: Proceed to C=C(C)[C@@H]1CC[C@]2(C(=O)O)CC[C@]3(C)[C@H](CC[C@@H]4[C@@]5(C)CC[C@H](OC(=O)C(C)(C)CC(=O)O)C(C)(C)[C@@H]5CC[C@]43C)[C@@H]12 [Compound 2]
Response: < 3.77

Data origin, for the record: patent US5679828A
